Each entry below lists one item and its recorded polymerase ribozyme fitness (log ratio) value.
B1: TPR t1 (parent)
chain: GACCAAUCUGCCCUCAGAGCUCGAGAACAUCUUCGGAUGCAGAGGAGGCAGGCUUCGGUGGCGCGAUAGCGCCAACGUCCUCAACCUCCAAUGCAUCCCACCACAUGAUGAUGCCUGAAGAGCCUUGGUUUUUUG

- Variants of: B1
- Method summary: polymerase ribozyme fitness, log enrichment relative to wild type (log ratio); higher = more active; in vitro selection for triplet polymerase activity
# respond with the number and nothing more

// known answers, use as guide
{"Entry sequence": "GACCAAUCUGCCCUCAGAGCUCGAGAACAUCUUCGGUUGCAGAGGAGGCAGGCUUCGGUCGUGCGAUAGCGCCAACGUCCUCAACCUCCAAUGCAUCCCACCACAUGAUGAUGCCUGAAGAGCCUUGGUUUUUUG [A37U G60C C62U]", "polymerase ribozyme fitness (log ratio)": -2.01}
{"Entry sequence": "GACCAAUCUGCCCUCAGAGCUCGAGAACAUCUUCGGAUGCAGAGGAGGCAGUCUUCGGUGGCGCGAUAGCGCCAACGUCCUCAACCUCCAAUUCAUCCCACCACAUGAUGAUGCCUGAAGAGCCUUGGUUUUUUG [G52U G93U]", "polymerase ribozyme fitness (log ratio)": -1.93}
{"Entry sequence": "GACCAAUCUGCCCUCAGAGCUCGAGAACAUCUUCGGAUGCAGAGGAGGCAGGCUUCGGUGGCGCGAUAGCGCCAACGUCCUCAACCUCCAAUGCAUCCCUUCAAAUGAUGAUGCCUGAAGAGCCUUGGUUUUUUG [A100U C101U C104A]", "polymerase ribozyme fitness (log ratio)": -2.87}
{"Entry sequence": "GACCAAUGUGCCCUCAGAGCUCGAGAACAUCUUCGGAUGCAGAGGAGGCAGGCUUCGGUGGCGCGAUAGCGCCAACGUCCUCAACCUCCAAUGCAUCCCACCACAGGAUGAUGUCUGAAGAGCCUUGGUUUUUUG [C8G U106G C114U]", "polymerase ribozyme fitness (log ratio)": -1.28}

Okay, now this variant:
Supply measured polymerase ribozyme fitness (log ratio) of GACCAAUCUACCCUCAGAGCUCGAGAACAUCUUCGGAUGCAGAGGAGGCAGGCUUCGGUGGCGCGAUAGCGCCAACGUCCUCAACCUCCCAUGCAUCCCACCACAUGAUGAUGCCUGAAGCGCCUUGGUUUUUUG [G10A A90C A121C] in your reply.
0.254
